# Tested on: NALM-6 cells
# MEASUREMENT NOTES: MTT cytotoxicity assay of oxovanadium(IV) compounds, NALM-6
# Type: cell-based, human
# MEASUREMENT SETUP: 48 hr

| SMILES REPRESENTATION | IC50 / µM |
| --- | --- |
| CC(=O)c1cc(Br)ccc1[O][V](=[O])[O]c1ccc(Br)cc1C(C)=O | 17.4 |

###

# Test system: U373 glioblastoma cells
# MEASUREMENT NOTES: MTT cytotoxicity assay of vanadocenes, U373 cells
# Format: cell-based, human
# MEASUREMENT SETUP: 24 h
MEASURED PROPERTY: log10 IC50 (log10 of the value in µM)

| SMILES REPRESENTATION | MEASURED PROPERTY | REPORTED VALUE |
| --- | --- | --- |
| [Cl-].[Cl-].[V+4].c1cc[cH-]c1.c1cc[cH-]c1 | log10 IC50 | 1.62 |
| [Br-].[Br-].[V+2].c1cc[cH-]c1.c1cc[cH-]c1 | log10 IC50 | 1.79 |
| Cc1c(C)c(C)[c-](C)c1C.Cc1c(C)c(C)[c-](C)c1C.[Cl-].[Cl-].[V+2] | log10 IC50 | 2.24 |
| C1=C[CH]([V+2][CH]2C=CC=C2)C=C1.[N-]=C=[Se].[N-]=C=[Se] | log10 IC50 | 0.30 |
| [I-].[I-].[V+2].c1cc[cH-]c1.c1cc[cH-]c1 | log10 IC50 | 0.70 |
| [N-]=[N+]=[N-].[N-]=[N+]=[N-].[V+2].c1cc[cH-]c1.c1cc[cH-]c1 | log10 IC50 | 1.71 |

###

# Test system: Ntera-2 testicular cancer cells
# MEASUREMENT NOTES: Flow cytometric TUNEL apoptosis assay, NTERA-2 cells
# Type: cell-based, human
# MEASUREMENT SETUP: 24 h, TUNEL-positive nuclei
% Apoptosis at 100 μM NTERA-2: recorded values

| SMILES REPRESENTATION | % Apoptosis at 100 μM NTERA-2 |
| --- | --- |
| [Cl-].[Cl-].[V+4].c1cc[cH-]c1.c1cc[cH-]c1 | 35 (34, 34) % |
| Cc1c(C)c(C)[c-](C)c1C.Cc1c(C)c(C)[c-](C)c1C.[Cl-].[Cl-].[V+2] | 34 (33, 35) % |
| [N-]=[N+]=[N-].[N-]=[N+]=[N-].[V+2].c1cc[cH-]c1.c1cc[cH-]c1 | 85 (78, 93) % |
| [I-].[I-].[V+2].c1cc[cH-]c1.c1cc[cH-]c1 | 57 (46, 69) % |

###

# System: Tera-2 testicular cancer cells
# MEASUREMENT NOTES: Flow cytometric TUNEL apoptosis assay, TERA-2 cells
# Format: cell-based, human
# MEASUREMENT SETUP: 24 h, TUNEL-positive nuclei
Reported % Apoptosis at 100 μM TERA-2 by item:
MEASURED PROPERTY: % Apoptosis at 100 μM TERA-2

| SMILES REPRESENTATION | REPORTED VALUE |
| --- | --- |
| [Cl-].[N-]=C=O.[V+2].c1cc[cH-]c1.c1cc[cH-]c1 | 73 (67, 78) % |
| O=S(=O)(O)C(F)(F)F.O=S(=O)(O)C(F)(F)F.[V+2].c1cc[cH-]c1.c1cc[cH-]c1 | 71 (71, 71) % |
| [I-].[I-].[V+2].c1cc[cH-]c1.c1cc[cH-]c1 | 72 (71, 73) % |
